Test system: Human CXCR7
Assay: CXCR7 β-arrestin complementation assay (PathHunter), CHO cells
Assay type: cell-based
Conditions: 10 nM human SDF-1, 90 minutes; read-out: IC50, CXCR7 activation (β-galactosidase)
{PEG40k} = 40 kDa polyethylene glycol
MEASUREMENT LABEL: pIC50
Friendly reminder that pIC50 comes from taking -log10 of the concentration in mol/L.

Give a short answer stating reported pIC50 for 5′-40 kDa-PEG-GCGUGGUGUGAUCUAGAUGUAUUGGCUGAUCCUAGUCAGGUACGC (5' {PEG40k}, sugars by position and backbone not given here) [NOX-A12] . 8.27

====

Tested on: biotinylated human D-SDF-1
Experiment: Direct pull-down binding assay
Settings: aptamer (D-RNA), 37° C.; read-out: equilibrium binding constant KD, pull-down binding assay
MEASUREMENT LABEL: Kd (nM)
Numeric only. Scale: nM

Reference set, count: 4
AGCGUGGUGUGAUCUAGAUGUAUUGGCUGAUCCUAGUCAGGUACGCU (chemistry not fully specified) [193-G2-001]
0.3
GAGAUAGGGGUUAGGGCUUAAAGUCGGCUGAUUCUC (aptamer; Made as D-RNA aptamer and L-RNA Spiegelmer, tested form not given here, further chemistry not given here) [190-A3-004]
4.6
GCGUGGUGUGAUCUAGAUGUAUUGGCUGAUCCUAGUCAGGUACGC (chemistry not fully specified) [193-G2-012]
0.3
CGGGAGGUUAGGGCUAGAAGUCGGUCCCG (chemistry not fully specified) [191-D5-007]
2.2

Let's switch to this sequence now.
Item GCUGUGAAAGCAACAUGUCAAUGAAAGGUAGCCGCAGC (aptamer; Made as D-RNA aptamer and L-RNA Spiegelmer, tested form not given here, further chemistry not given here) [192-A10-001] : provide Kd 1.5
